B1: glmS ribozyme (parent)
chain: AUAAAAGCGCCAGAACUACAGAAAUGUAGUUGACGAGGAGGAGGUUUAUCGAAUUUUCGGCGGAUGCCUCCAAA

variants of: B1; experiment: self-cleavage kobs at 2500 uM GlcN6P; higher = faster cleavage; RNA array; conditions: with glucosamine-6-phosphate
This sample holds only a part of the variants without activity.
READOUT: self-cleavage kobs at 2500 uM GlcN6P (s⁻¹)
Report as a plain number; the unit s⁻¹ is understood.

Example variants with recorded self-cleavage kobs at 2500 uM GlcN6P:
{"columns": ["MONOMER_SEQUENCE", "READOUT", "QUANTITY_UNIT", "OBSERVED_RESULT"],
 "data": [
  ["AUAAAAGCGCCAGAACUACAGAAAUGUAGUUAACGAGGAGGAGGUUUAUCGAAUUUUCGGCGGAUCCCUCCAAA [G32A G66C]", "self-cleavage kobs at 2500 uM GlcN6P", "s⁻¹", "3.72e-05"],
  ["AUAAAAGCGCCAGAACUACAGAAAUGUAGUUGACGAGGAGGCGGUUUAUCGAAUUUUCGGCGGAUGCCACCAAA [A42C U69A]", "self-cleavage kobs at 2500 uM GlcN6P", "s⁻¹", 0.000182],
  ["AUAAAGGCGCCAGACCUACAGAAAUGUAGUUGACGAGGAGGAGGUUUAUCGAGUUUUCGGCGGAUGCCUCCAAA [A6G A15C A53G]", "self-cleavage kobs at 2500 uM GlcN6P", "s⁻¹", "6.25e-05"],
  ["AUAAAAGCGCCAGAACUACAGAAAUGUAGUUGACGAGGAGGAGGUUUAUCGAAGUUUCGGCGGAGGCCUCCAAA [U54G U65G]", "self-cleavage kobs at 2500 uM GlcN6P", "s⁻¹", 0.00144],
  ["AUAAAAGCGUCAGAACUACAGAAAUAUAGUUGACGAGGAGGAGGUUUAUCGAAUUUUCGGCGGAUGCCUCCAAA [C10U G26A]", "self-cleavage kobs at 2500 uM GlcN6P", "s⁻¹", "7.4e-05"],
  ["AUAAAAGCGCCAGAACUACAGAAAUGUAGUUGACGAGGAGGAGGUUUAUCGAGUUUUCGGCGGACGCCUCCAAA [A53G U65C]", "self-cleavage kobs at 2500 uM GlcN6P", "s⁻¹", 0.000224],
  ["AUAAAAGCGCCAGUACUACAGAAAUGUAGUUGACGAGGAGGAGGUUUAUCGAAUUUUCGGCGGUAGGCUCGAAA [A14U A64U U65A C67G C71G]", "self-cleavage kobs at 2500 uM GlcN6P", "s⁻¹", "4.74e-05"],
  ["AUAAAAGCGCCCGAACUACAGAAAUGUAGUAGACGAGGAGGAGGUUCAUCGAAUUUUCGGCGGAUGUCUCCAAA [A12C U31A U47C C67U]", "self-cleavage kobs at 2500 uM GlcN6P", "s⁻¹", "5.13e-05"],
  ["AUAAAAGCGCCAUAACUACAGAAAUGUAGUUGACGAGGAGGAGGUUUAUCGAAUUUUCGGCGGAUGCCUGCAAA [G13U C70G]", "self-cleavage kobs at 2500 uM GlcN6P", "s⁻¹", "3.94e-05"],
  ["AUAAAAGCGCCAGCACUACAGAAAUGUAGUUGACGAGGAGGAGGUUAAUCGAAUUUUCGGCGGAUGCCUCCAAA [A14C U47A]", "self-cleavage kobs at 2500 uM GlcN6P", "s⁻¹", 0.00184]
]}

Query: Return reported self-cleavage kobs at 2500 uM GlcN6P. Input variant: AUAAAAGCGCUAGGACUACAGAAAUGUAGUUGACGAGGAGGAGGUUUAUCGGAUUUUCGGCGGAUGCCUCCAAA [C11U A14G A52G]
Result: 0.00029

Query: Return reported self-cleavage kobs at 2500 uM GlcN6P. Input variant: AUAAAAGCGCCAGAACUACAGAAAUGUAGUUGACGAGGAGGAGGUUUAUCGAAUUUUCGGCGGACGCCUUCAAA [U65C C70U]
Result: 0.000379

Query: Return reported self-cleavage kobs at 2500 uM GlcN6P. Input variant: AUAAAAGCGCGAGAACUACAGAAAUGUAGUUGACGAGGAGGAGGUUUAUCGAAUUUUCGGCGGAUGACUCGAAA [C11G C67A C71G]
Result: 0.000135

Value source: the supplement of paper PMC7125110
